Listed here are compounds together with their documented inhibition.
system: Tyrosine-protein kinase ABL1 (Homo sapiens), P00519 [Q252H]; conditions: at 0.1 µM
measure: inhibition (%)

chemical-smiles | measure | value-units | value-reported
NS(=O)(=O)c1ccc(N/N=C2\C(=O)Nc3ccc(C(=O)NCc4ccncc4)cc32)cc1 | inhibition | % | 1.73
CNC(=O)c1cncc(/C=C/c2ccccc2C)c1 | inhibition | % | 5.28
Fc1ccc(Nc2nccc(-c3c(-c4ccc(C(F)(F)F)cc4)nn4ncccc34)n2)cc1F | inhibition | % | 3.28
Cc1nnc(-c2cccc(-c3ccc(C(=O)NCC4CC4)cc3)c2)o1 | inhibition | % | 4.31
CCS(=O)(=O)c1ccc(OC)c(Nc2ncc(-c3cccc(C(C)=O)c3)o2)c1 | inhibition | % | 30.4
COc1cc(N2CCN(C(C)C)CC2)ccc1Nc1nc(Nc2cccc3ncccc23)c2cc[nH]c2n1 | inhibition | % | 1.61
COC(=O)Nc1nc2ccc(Oc3ccc(NC(=O)Nc4cc(C(F)(F)F)ccc4F)cc3)cc2s1 | inhibition | % | 75.1
CCS(=O)(=O)c1ccc(OC)c(Nc2ncc(-c3cccc(F)c3)o2)c1 | inhibition | % | 41.9
O=C1Nc2ccccc2/C1=C1\CCc2cc(O)ccc21 | inhibition | % | 5.53
CN(C)CCNC(=O)Nc1ccc(N(C)c2ccnc(Nc3ccc(CS(C)(=O)=O)cc3)n2)cc1 | inhibition | % | 5.59

###

system: Tyrosine-protein kinase ABL1 (Homo sapiens), P00519 [M351T]; conditions: at 1 µM
Classification field: enter class 1 for inhibition values not below 20%, class 0 for values below it.

compound | class-name
COc1c(C(N)=O)cc(-c2ccc(Cl)cc2)cc1-c1ccc(S(N)(=O)=O)cc1 | class 0
Cc1cc(O)cc(C)c1/C=C/c1cncc(C(=O)OC(C)(C)C)c1 | class 1
Cc1cc(O)cc(C)c1/C=C/c1cncc(C(N)=O)c1 | class 1
O=C(O[C@H]1CN[C@H](C#Cc2cc3ncnc(Nc4ccc(OCc5cccc(F)c5)c(Cl)c4)c3s2)C1)N1CCOCC1 | class 0
CCN1CCC(C(=O)Nc2n[nH]c3nnc(-c4cccc(F)c4F)cc23)CC1 | class 0
COc1cc(N2CCN(C(C)C)CC2)ccc1Nc1nc(Nc2cccc3ncccc23)c2cc[nH]c2n1 | class 0
Cc1c2ccc(N(C)c3ccnc(Nc4cccc(S(N)(=O)=O)c4)n3)cc2nn1C | class 1
c1ccc(-c2n[nH]cc2-c2ccnc(-c3ccc(OCCn4ccnc4)cc3)c2)nc1 | class 1
c1cnn2ncc(-c3ccnc(NCCCN4CCOCC4)n3)c2c1 | class 0
CCS(=O)(=O)c1ccc(OC)c(Nc2ncc(-c3cccc(C(C)=O)c3)o2)c1 | class 1
CN(C)CCNC(=O)Nc1ccc(N(C)c2ccnc(Nc3ccc(CS(C)(=O)=O)cc3)n2)cc1 | class 0
CN(c1ccc(NC(=O)NCCN2CCOCC2)cc1)c1ccnc(Nc2ccc(CS(C)(=O)=O)cc2)n1 | class 1
Cn1c(-c2nonc2N)nc2cnccc21 | class 0
CCn1c(-c2nonc2N)nc2cncc(C(=O)NCCNC)c21 | class 0
Fc1ccc(Nc2nccc(-c3c(-c4ccc(C(F)(F)F)cc4)nn4ncccc34)n2)cc1F | class 0
OCCCNc1nccc(-c2c(-c3ccc(F)cc3)nn3cc(C(F)(F)F)ccc23)n1 | class 0
CC1=C(C(=O)Nc2ccc3[nH]ncc3c2)C(c2ccc(F)cc2)N=C(c2ccc(C(F)(F)F)nc2)N1 (configuration not stated) | class 0
NS(=O)(=O)c1ccc(N/N=C2\C(=O)Nc3ccc(C(=O)NCc4ccncc4)cc32)cc1 | class 0
CCCNc1cccc(-n2ncc3c(N/N=C/c4ccncc4)ncnc32)c1 | class 1
CNC(=O)c1ncccc1Nc1nc(Nc2cc3c(cc2OC)CCCN3C(=O)CN(C)C)nc2[nH]ccc12 | class 0
COC(=O)Nc1nc2ccc(Oc3ccc(NC(=O)Nc4cc(C(F)(F)F)ccc4F)cc3)cc2s1 | class 1
O=C(O[C@H]1CN[C@H](C#Cc2cc3ncnc(Nc4ccc5c(cnn5Cc5ccccc5)c4)c3s2)C1)N1CCOCC1 | class 0
N#Cc1cccc(Nc2ncc(-c3ccccc3)o2)c1 | class 1
Cc1nnc(-c2cccc(-c3ccc(C(=O)NCC4CC4)cc3)c2)o1 | class 0
CC1=C(C(=O)Nc2ccc3[nH]nc(C)c3c2)C(c2ccc(C(F)(F)F)cc2)CC(=O)N1 (configuration not stated) | class 0
O=C(O[C@H]1CN[C@H](C#Cc2cc3ncnc(Nc4ccc5c(ccn5Cc5cc(F)ccc5F)c4)c3s2)C1)N1CCOCC1 | class 0
FC(F)(F)CNc1nccc(-c2cnn3ncccc23)n1 | class 0
COc1ccc2ncn(-c3cc(O[C@H](C)c4ccccc4C(F)(F)F)c(C(N)=O)s3)c2c1 | class 0
Cc1ccc(-c2cc3c(NC(=O)C4CC4)ncnc3o2)cc1 | class 1
CC(C)c1ccc(-c2cc(-c3c[nH]nc3-c3ccccn3)ccn2)cc1 | class 1
COc1cc(N2CCN(C(C)C)CC2)ccc1Nc1nc(Nc2cccc(F)c2C(=O)O)c2cc[nH]c2n1 | class 0
COc1cccc(Nc2nccc(-c3cnn4ncccc34)n2)c1 | class 1
